B1: NECAB1 (parent)
chain: NLDTEELCEYFSQHLGEYENVLAA

# Variants of: B1
# protocol: protein stability index of a GFP-peptide fusion (GPS, HEK-293T) (PSI 1-6); higher = more stable;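 also: lentivirally expressed fusions sorted by FACS into six bins by GFP to DsRed ratio, PSI derived from sequencing read proportions per bin multiplied by bin number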
# stated_conditions: c terminus: a fixed tail appended

variant: V21W
protein stability index: 1.68

variant: Q13M
protein stability index: 2.06

variant: S12M
protein stability index: 1.98

variant: A24R
protein stability index: 1.82

variant: E5G
protein stability index: 1.99

variant: L22C
protein stability index: 4.64

variant: N20T
protein stability index: 1.78

variant: Y10E
protein stability index: 4.69

variant: N20C
protein stability index: 2.05

variant: G16I
protein stability index: 2.14

variant: C8W
protein stability index: 3.28

variant: L15H
protein stability index: 3.91

variant: F11Y
protein stability index: 4.33

variant: Y18C
protein stability index: 4.03

variant: S12W
protein stability index: 3.15

variant: A24E
protein stability index: 3.53

variant: Y18H
protein stability index: 4.47

variant: L15F
protein stability index: 2.94

variant: Q13S
protein stability index: 2.87

variant: E6P
protein stability index: 3.82

variant: E17S
protein stability index: 2.99

variant: D3M
protein stability index: 1.88

Source of measurements: the supplement of paper PMC10567573
